# experimental.protocol: Ratio of drug uptake in thalamus to cerebellum in anesthetized cynomolgus monkey after 9.5 mins postinjection
# Assay type: ADME, organism-based, Macaca fascicularis
# run.parameters: in vivo
recorded.endpoint: Ratio

INSERT INTO assay_data (molecule, experimental_value) VALUES
  ('O=C(OCCC[18F])C1C2CCC(CC1c1cccc(/C=C\I)c1)N2 (stereo not given)', 0.8),
  ('O=C(OCCC[18F])C1C2CCC(CC1c1cccc(/C=C\Br)c1)N2 (stereo not given)', 0.7),
  ('O=C(OCC[18F])C1C2CCC(CC1c1cccc(/C=C\I)c1)N2 (stereo not given)', 0.9),
  ('O=C(OCC[18F])C1C2CCC(CC1c1cccc(/C=C\Br)c1)N2 (stereo not given)', 0.9),
  ('O=C(OCC[18F])C1C2CCC(CC1c1ccc(/C=C\I)cc1)N2 (stereo not given)', 1);

* * *

# System: Medulla
# experimental.protocol: Drug uptake in anesthetized cynomolgus monkey brain medulla after 125 mins postinjection
# Type: ADME, organism-based, Macaca fascicularis
# run.parameters: in vivo
Mark label 1 only when Drug uptake stays strictly below 4. Values equal to the cut-off are label 0.

INSERT INTO measurements (molecule, class_label) VALUES
  ('O=C(OCCC[18F])C1C2CCC(CC1c1cccc(/C=C\I)c1)N2 (stereo not given)', 'label 0'),
  ('O=C(OCC[18F])C1C2CCC(CC1c1cccc(/C=C\I)c1)N2 (stereo not given)', 'label 1'),
  ('O=C(OCC[18F])C1C2CCC(CC1c1ccc(/C=C\I)cc1)N2 (stereo not given)', 'label 1'),
  ('O=C(OCC[18F])C1C2CCC(CC1c1cccc(/C=C\Br)c1)N2 (stereo not given)', 'label 0'),
  ('O=C(OCCC[18F])C1C2CCC(CC1c1cccc(/C=C\Br)c1)N2 (stereo not given)', 'label 0');

* * *

# Test system: HEK293
# experimental.protocol: Selectivity for human DAT over human SERT transfected in human HEK293 cells
# Assay type: cell-based
Entries and their Ratio Ki values follow.
recorded.endpoint: Ratio Ki

INSERT INTO measurements (compound, experimental_value) VALUES
  ('O=C(OCCF)C1C2CCC(CC1c1cccc(/C=C/I)c1)N2 (trans isomer)', 18),
  ('O=C(OCCF)C1C2CCC(CC1c1cccc(/C=C\Br)c1)N2 (stereo not given)', 108),
  ('O=C(OCCF)C1C2CCC(CC1c1cccc(/C=C\I)c1)N2 (stereo not given)', 204),
  ('O=C(OCCCF)C1C2CCC(CC1c1cccc(/C=C\Br)c1)N2 (stereo not given)', 360),
  ('O=C(OCCCF)C1C2CCC(CC1c1cccc(/C=C\I)c1)N2 (stereo not given)', 691);

* * *

# experimental.protocol: Ratio of drug uptake in midbrain to cerebellum in anesthetized cynomolgus monkey after 27.5 mins postinjection
# Type: ADME, organism-based, Macaca fascicularis
# run.parameters: in vivo
recorded.endpoint: Ratio

INSERT INTO results (molecule, experimental_value) VALUES
  ('O=C(OCCC[18F])C1C2CCC(CC1c1cccc(/C=C\I)c1)N2 (centres undefined)', 1),
  ('O=C(OCC[18F])C1C2CCC(CC1c1cccc(/C=C\I)c1)N2 (centres undefined)', 1.1),
  ('O=C(OCCC[18F])C1C2CCC(CC1c1cccc(/C=C\Br)c1)N2 (centres undefined)', 1.1),
  ('O=C(OCC[18F])C1C2CCC(CC1c1cccc(/C=C\Br)c1)N2 (centres undefined)', 1.2);
